This section presents molecules with their documented pEC50 values.
System: human PPARdelta (Homo sapiens, UniProt Q03181)
Construct: amino acids S139-Y441
Sequence (Q03181 139-441): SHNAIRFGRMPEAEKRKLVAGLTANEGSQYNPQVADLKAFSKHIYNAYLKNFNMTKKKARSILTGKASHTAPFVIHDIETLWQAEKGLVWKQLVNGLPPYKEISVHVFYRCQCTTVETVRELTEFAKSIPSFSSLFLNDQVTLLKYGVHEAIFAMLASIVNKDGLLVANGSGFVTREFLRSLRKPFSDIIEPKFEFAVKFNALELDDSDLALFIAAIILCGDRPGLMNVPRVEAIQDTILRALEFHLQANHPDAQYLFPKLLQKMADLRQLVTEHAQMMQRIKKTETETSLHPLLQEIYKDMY
Assay Name: Cellular PPARdelta assay (stably transfected HEK luciferase reporter cell line)
Condition Description: GR-GAL4-humanPPARdelta-LBD
Keep it numeric: pEC50 is minus log10 of the concentration in mol/L.

Some solved cases for reference:
>>> print(df.to_string())
                                   molecule  measurement
0  CC(C)c1nnc(NS(=O)(=O)c2ccc([C@@H]3CCC[C@@H]3Nc3ncc(C(F)(F)F)cc3Cl)cc2)s1         9.00
1  CC(C)c1nnc(NS(=O)(=O)c2ccc(C3(CNc4ncc(C(F)(F)F)cc4Cl)CCCC3)cc2)s1         6.66

Given item CC(C)c1nnc(NS(=O)(=O)c2cc3c(cc2Cl)CC(Nc2ncc(C(F)(F)F)cc2Cl)C3)s1 (centres unmarked) , the value recorded as its pEC50 is 6.11

Reported pEC50 ( CC(C)c1nnc(NS(=O)(=O)c2ccc(C3(CNc4ncc(C(F)(F)F)cc4Cl)CCCCC3)cc2)s1 ) = 7.22

Measured pEC50 of CC(C)c1nnc(NS(=O)(=O)c2ccc([C@@H]3CCC[C@H]3Nc3ncc(C(F)(F)F)cc3Cl)cc2)s1 : 7.17

###

Reported EC50 values are given for each entry in this list.
System: human PPARgamma (Homo sapiens, UniProt P37231)
Construct: amino acids I152-Y475
Sequence (P37231 210-505 limits assumed): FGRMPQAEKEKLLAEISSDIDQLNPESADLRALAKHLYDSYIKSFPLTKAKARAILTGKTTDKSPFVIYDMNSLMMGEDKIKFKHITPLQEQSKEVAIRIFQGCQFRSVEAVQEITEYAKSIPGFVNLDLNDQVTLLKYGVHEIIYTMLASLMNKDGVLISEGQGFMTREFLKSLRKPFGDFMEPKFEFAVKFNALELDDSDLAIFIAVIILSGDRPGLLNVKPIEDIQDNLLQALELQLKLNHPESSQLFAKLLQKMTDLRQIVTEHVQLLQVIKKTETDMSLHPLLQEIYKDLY
Assay Name: Cellular PPARgamma assay (transiently transfected HEK cells, luciferase reporter)
Condition Description: GAL4-humanPPARgammaLBD
Form entry: value (nM) — number only.

>>> print(df.to_string())
                                   molecule  readout  measurement
0  CC(C)c1nnc(NS(=O)(=O)c2ccc(C3(CNc4ncc(C(F)(F)F)cc4Cl)CCCC3)cc2)s1 [Example 4]     EC50          990
1  CC(C)c1nnc(NS(=O)(=O)c2ccc([C@@H]3CCC[C@H]3Nc3ncc(C(F)(F)F)cc3Cl)cc2)s1 [Example 2]     EC50          647
2  CC(C)c1nnc(NS(=O)(=O)c2ccc(C3(CNc4ncc(C(F)(F)F)cc4Cl)CCCCC3)cc2)s1 [Example 1]     EC50           26

Below: the item to evaluate.
Short answer for CC(C)c1nnc(NS(=O)(=O)c2ccc([C@@H]3CCC[C@@H]3Nc3ncc(C(F)(F)F)cc3Cl)cc2)s1 [Example 3] : EC50 was 1800

Where do the numbers come from? From patent US8344004B2.
